Molecular target: Type II 5α-Reductase from Human Prostate (Homo sapiens, UniProt P31213)
Construct: The same procedure as above was used for preparations using tissue from prostate surgery; from tissue; host or cells: human prostate tissue from surgery, homogenate, 100,000×g pellet
Sequence (P31213 1-254): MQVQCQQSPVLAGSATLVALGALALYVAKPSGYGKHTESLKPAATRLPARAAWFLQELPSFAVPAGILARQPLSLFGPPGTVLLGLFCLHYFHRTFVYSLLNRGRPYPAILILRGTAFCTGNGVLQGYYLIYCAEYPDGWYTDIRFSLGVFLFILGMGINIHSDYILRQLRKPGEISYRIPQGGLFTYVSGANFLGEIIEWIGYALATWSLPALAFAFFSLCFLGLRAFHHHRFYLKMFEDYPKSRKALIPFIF
Test: Human Type II 5α-reductase assay (conversion of [3H]-testosterone to 5α-reduced metabolites)
Assay type: biochemical
Settings: pH 5.5, 0.3 μM; sodium acetate pH 5.5, 25°, 30 min; compared to control reaction mixtures; read-out: percent inhibition of Type II AR
MEASURED METRIC: inhibition at 0.3 µM (%)

Illustrative cases are given below, each with its answer.
MOL | inhibition at 0.3 µM / %
CN1C(=O)CC[C@]2(C)c3ccc(-c4nc5ccccc5s4)cc3CC[C@@H]12 | 54
CN1C(=O)CC[C@]2(C)c3ccc(-c4ccc(-c5ccccc5)cc4)cc3CC[C@@H]12 | 23

[a] Cc1ccc(C)c2sc(Sc3ccc4c(c3)CC[C@H]3N(C)C(=O)CC[C@]43C)nc12
[b] Cc1ccc(-c2ccc3c(c2)CC[C@H]2N(C)C(=O)CC[C@]32C)c2ccccc12
Exam item: Compare a and b and name the one whose reported inhibition at 0.3 µM is smaller. Respond using the label that marks the chosen record.
Marked response: b
